- Tested on: Pseudomonas aeruginosa
- procedure_summary: Antimicrobial activity against Pseudomonas aeruginosa PA14 assessed as inhibition of biofilm formation after 24 hrs by spectrophotometry
- Type: functional, organism-based
- condition_description: PA14, 24 h
observed_property: IC50 (µM)

Would you please look over these solved cases?
Clc1ccc(-c2cnc(NC3CCCCC3)[nH]2)cc1 | 25
COc1cccc(CNc2ncc(-c3ccc([N+](=O)[O-])cc3)[nH]2)c1 | 3.7
CCCCNc1ncc(-c2ccc(F)cc2)[nH]1 | 10.8
Brc1ccc(-c2cnc(NC3CCCC3)[nH]2)cc1 | 7.2
CCCCCCCCN1c2nccc[n+]2C[C@@]1(O)c1ccc(S(C)(=O)=O)cc1 | 99.9
CCCCCCCCN1c2nccc[n+]2C[C@@]1(O)c1ccc(-c2ccc(-c3ccccc3)cc2)cc1 | 336

[1] CCCCNc1ncc(-c2ccc(OC)cc2)[nH]1
[2] CC(C)CNc1ncc(-c2ccc([N+](=O)[O-])cc2)[nH]1
Compare 1 and 2 and name the one whose reported IC50 is smaller. Use the label to indicate which entry you chose. 2
(2: 22.9 µM, 1: 46.3 µM)

* * *

- Test system: Salmonella typhimurium
- procedure_summary: Antimicrobial activity against Salmonella Typhimurium ATCC 14028 assessed as inhibition of biofilm formation after 24 hrs by spectrophotometry
- Assay type: functional, organism-based, Salmonella enterica subsp. enterica serovar Typhimurium
- condition_description: Salmonella enterica, ATCC 14028, 24 h
pIC50: −log10 of the molar value.
observed_property: pIC50

Would you please look over these solved cases?
CCNc1ncc(-c2ccc([N+](=O)[O-])cc2)[nH]1 | 3.77
CN1c2nccc[n+]2C[C@@]1(O)c1cccc([N+](=O)[O-])c1 | 3.25
O[C@@]1(c2ccccc2)C[n+]2cccnc2N1C1CCCCCC1 | 4.07
CCCCCCCCCCCCCCN1c2nccc[n+]2C[C@@]1(O)c1ccccc1.[Br-] | 3.75
CCCCCCCCCCN1c2nccc[n+]2C[C@@]1(O)c1ccccc1 | 4.82
O[C@@]1(c2ccc(Cl)cc2)C[n+]2cccnc2N1C1CCCCCCCCCCC1 | 5.25
O[C@@]1(c2ccc(I)cc2)C[n+]2cccnc2N1Cc1ccccc1 | 4.44
CCCCCCCN1c2nccc[n+]2C[C@@]1(O)c1ccccc1 | 4.63
CCCCCCCCCCCCN1c2nccc[n+]2C[C@@]1(O)c1ccccc1.[Br-] | 4.56
CCCCCCCCN1c2nccc[n+]2C[C@@]1(O)c1ccc(-c2ccc([N+](=O)[O-])cc2)cc1 | 4.51

[a] CC(C)CNc1ncc(-c2ccc(Br)cc2)[nH]1
[b] CC(C)CN1c2nccc[n+]2C[C@@]1(O)c1ccc(Cl)cc1
Sorting by pIC50 in descending order, would a or b appear first? Please identify the chosen entry by its label. a

[A] Clc1ccc(-c2cnc(NC3CCCC3)[nH]2)cc1
[B] CN1c2nccc[n+]2C[C@@]1(O)c1ccc(F)cc1
[C] CNc1ncc(-c2ccc(F)c(F)c2)[nH]1
[D] Brc1ccc(-c2cnc(NC3CCCC3)[nH]2)cc1
[E] O[C@@]1(c2ccc3c(c2)OCO3)C[n+]2cccnc2N1Cc1ccc2c(c1)OCO2
Kindly order the items shown according to pIC50, from the highest value down. Give your ranking as a list of the labels in the requested order. A, D, E, C, B

[P] O[C@@]1(c2ccc(F)cc2)C[n+]2cccnc2N1Cc1ccc2c(c1)OCO2
[Q] CNc1ncc(-c2ccc([N+](=O)[O-])cc2)[nH]1
[R] CCCCCCCCCCN1c2nccc[n+]2C[C@@]1(O)c1ccc(Cl)cc1
[S] CCCCCN1c2nccc[n+]2C[C@@]1(O)c1ccccc1
[T] CCCCCCCCNc1ncc(-c2ccc([N+](=O)[O-])cc2)[nH]1
Order the records so the highest pIC50 appears first and the lowest last. Lab note: record answer as labels in requested order. T, P, R, Q, S
(T: 4.96, P: 4.76, R: 4.29, Q: 3.77, S: 3.56)

[I] CCCCN1c2nccc[n+]2C[C@@]1(O)c1ccc(F)cc1
[II] CCCCNc1ncc(-c2ccc([N+](=O)[O-])cc2)[nH]1
I'd appreciate it if you could identify which of I and II has the greater pIC50. Output the label that corresponds to your choice. I

[A] CCCCCNc1ncc(-c2ccc(Br)cc2)[nH]1
[B] CCCCCCCCCCN1c2nccc[n+]2C[C@@]1(O)c1ccc(Cl)c(Cl)c1
Lower value of pIC50 belongs to which: A or B ? Refer to your chosen entry by its label in the reply. B

[P] CCCCCN1c2nccc[n+]2C[C@@]1(O)c1ccc(Br)cc1
[Q] CCCCCCCCCCCCCN1c2nccc[n+]2C[C@@]1(O)c1ccccc1.[Br-]
// which entry reports the smaller pIC50, P or Q ? Response format: the label of the selected entry. Q

[a] CCCCCCCCCCCCN1c2nccc[n+]2C[C@@]1(O)c1ccc(Cl)cc1
[b] Fc1ccc(-c2cnc(NCc3ccc4c(c3)OCO4)[nH]2)cc1
[c] CCCCCCCCCCCN1c2nccc[n+]2C[C@@]1(O)c1ccccc1.[Br-]
Ascending by pIC50, please: list the compounds accordingly. Use the labels to give the requested order. a, b, c
(a: 3.91, b: 4.18, c: 4.61)

[P] O=[N+]([O-])c1ccc([C@]2(O)C[n+]3cccnc3N2Cc2ccccc2)cc1
[Q] O[C@@]1(c2ccc(Cl)cc2)C[n+]2cccnc2N1C1CC1
[R] CCN1c2nccc[n+]2C[C@@]1(O)c1ccc([N+](=O)[O-])cc1
[S] CCCCCCCCCCCCCN1c2nccc[n+]2C[C@@]1(O)c1ccc(Cl)cc1
Ranking field: pIC50; order: falling. List the labels according to the requested ordering. Q, P, S, R

[a] CCCCCCCCN1c2nccc[n+]2C[C@@]1(O)c1ccc(S(C)(=O)=O)cc1
[b] CNc1ncc(-c2ccc(F)cc2)[nH]1
Between the entries labelled a and b , which has a larger pIC50 value on record? Indicate which entry you chose by stating its label. a
(a: 4.22, b: 3.99)

* * *

- System: Salmonella typhimurium
- procedure_summary: Antimicrobial activity against Salmonella Typhimurium ATCC 14028 assessed as inhibition of biofilm formation after 24 hrs by spectrophotometry
- Format: functional, organism-based, Salmonella enterica subsp. enterica serovar Typhimurium
- condition_description: Salmonella enterica, ATCC 14028, 24 h
observed_property: IC50 (µM)

Example entries and their recorded answers appear below.
CC(C)CNc1ncc(-c2ccc(Cl)cc2)[nH]1 | 2
CC(C)CN1c2nccc[n+]2C[C@@]1(O)c1ccccc1 | 131
CCCCCCCCNc1ncc(-c2ccc(OC)cc2)[nH]1 | 400
CCCCCCCCNc1ncc(-c2cccc(Br)c2)[nH]1 | 44.6
CNc1ncc(-c2ccc(O)cc2)[nH]1 | 160

[1] CCCCCCCCNc1ncc(-c2ccc(Br)cc2)[nH]1
[2] COc1ccc(CN2c3nccc[n+]3C[C@@]2(O)c2ccc(Br)cc2)cc1
Kindly identify the item with the lower IC50 figure among these two: 1 and 2 State the label of the item chosen. 1
(1: 1.9 µM, 2: 110 µM)

[A] CC(C)CN1c2nccc[n+]2C[C@@]1(O)c1ccc(Cl)c(Cl)c1
[B] CCCCN1c2nccc[n+]2C[C@@]1(O)c1ccc(Br)cc1
When A and B are compared, which has the higher number for IC50? Refer to your chosen item by its label in the answer. B
(B: 90.1 µM, A: 8 µM)

* * *

- Test system: Pseudomonas aeruginosa
- procedure_summary: Antimicrobial activity against Pseudomonas aeruginosa PA14 assessed as inhibition of planktonic cell growth at 80 uM after 24 hrs by […]
- Format: functional, organism-based
Activity calls are given as the source filed them. The calls are words filed in the database; no cut-off is given here.
observed_property: growth inhibition (GI)

O[C@@]1(c2ccccc2)C[n+]2cccnc2N1C1CCCCCCC1 | Active
CCCCNc1ncc(-c2ccc(OC)cc2)[nH]1 | inactive
O[C@@]1(c2ccc(Cl)cc2)C[n+]2cccnc2N1C1CCCCC1 | Active
O[C@@]1(c2ccc(Cl)cc2)C[n+]2cccnc2N1C1CCCC1 | Active
CNc1ncc(-c2ccc([N+](=O)[O-])cc2)[nH]1 | inactive

Report growth inhibition (GI) for O[C@@]1(c2ccc(Cl)cc2)C[n+]2cccnc2N1C1CCCCCC1 please. Active

Which growth inhibition (GI) is reported for this molecule? Nc1ncc(-c2ccccc2)[nH]1 inactive

For the molecule COc1ccc(-c2cnc(NC3CCCCC3)[nH]2)cc1 , what growth inhibition (GI) is on record? inactive

What does the record list as growth inhibition (GI) for O[C@@]1(c2ccccc2)C[n+]2cccnc2N1C1CCCCC1 ? Active

* * *

- Test system: Salmonella typhimurium
- procedure_summary: Antimicrobial activity against Salmonella Typhimurium ATCC 14028 assessed as inhibition of biofilm formation after 24 hrs by spectrophotometry
- Assay type: functional, organism-based, Salmonella enterica subsp. enterica serovar Typhimurium
- condition_description: Salmonella enterica, ATCC 14028, 24 h
observed_property: IC50 (µM)

Look over these answered cases.
O[C@@]1(c2ccc(Cl)cc2)C[n+]2cccnc2N1C1CCCCCCC1 | 12.6
CCCCN1c2nccc[n+]2C[C@@]1(O)c1ccc(OC)cc1 | 314

[a] CC(C)N1c2nccc[n+]2C[C@@]1(O)c1ccc([N+](=O)[O-])cc1
[b] CCCCCCCCN1c2nccc[n+]2C[C@@]1(O)c1ccc(Cl)cc1
[c] CCCCN1c2nccc[n+]2C[C@@]1(O)c1ccc([N+](=O)[O-])cc1
# sort list by recorded IC50, greatest to least Rank them, then answer with their labels in that order. a, c, b
(a: 466 µM, c: 293 µM, b: 7 µM)
